assay: Plasma pharmacokinetics, single dose in rats; format: in vivo, Sprague-Dawley rats; conditions: Sprague-Dawley, rat, iv; i.v. 10 mg/kg, plasma, normal rats
Readout type: half-life (min)
Write it as a number; the unit min goes unstated.

Kindly indicate its recorded half-life. Item: Cc1nc2c(c3c1[nH]c1ccccc13)C(=O)CC(C)(C)C2 45.9

###

assay: Brain/plasma pharmacokinetics, single i.v. bolus in rats; type: in vivo, Sprague-Dawley rats; conditions: Sprague-Dawley, rat, brain, intravenous; 10 mg/kg bolus i.v., normal rats, time 4 h; read-out: Mean concentration in brain
Readout type: concentration at 4 h (ng/mL)
Write the number in ng/mL without appending the unit.

Please give measured concentration at 4 h of the following entry: Cc1nc2c(c3c1[nH]c1ccccc13)C(=O)CC(C)(C)C2 [Example 1] 99.4
